System: Malme-3M
measurement_protocol: NCI tumour cell line growth inhibition, 48 h
Calls of active or inactive are those of the source. Rule as the data show it: active = GI50 up to about 1.1 µM and inactive = higher. Where a SMILES comes first, the peptide text is derived from it. The star is where a group is joined. Boc = CC(C)(C)OC(=O)*
Outcome (select one): active, inactive

Some entries whose results are on file:
- compound: "COc1cccc2c1[C@H](OC)[C@]13O[C@@]1(C2=O)[C@H](O)[C@H](C)[C@@](O)(C(=O)[C@@H]1O[C@H]1C)[C@@H]3O"
  measured_on: "Malme-3M"
  label_value: "active"
- compound: "CC(=O)O[C@H]1C(=O)[C@@]2(C)[C@H]([C@H](OC(=O)C3CCCCC3)[C@]3(O)C[C@H](OC(=O)[C@H](O)[C@@H](NC(=O)C4CCCCC4)C4CCCCC4)C(C)=C1C3(C)C)[C@]1(OC(C)=O)CO[C@@H]1C[C@@H]2O"
  measured_on: "Malme-3M"
  label_value: "active"

Note: attention shifts to another entry.
Q: Hey, what did the test say about COC(=O)C(C)NC(=O)C(CCSC)NC(=O)C(Cc1ccccc1)NC(=O)OC(C)(C)C (stereo not drawn) (Boc-Phe-Met-Ala-OMe; configuration not given here) ?
Ans: inactive

* * *

System: UO-31
measurement_protocol: NCI tumour cell line growth inhibition, 48 h
The source made the active and inactive calls. Rule as the data show it: active = GI50 up to about 1.1 µM and inactive = higher.
Your answer must be one of the following: active, inactive

- molecule: "O=S(=O)(Cc1ccccc1)c1nnc(S(=O)(=O)c2ccc(Cl)cc2)s1"
  measured_on: "UO-31"
  label_value: "inactive"
- molecule: "CC(=O)N/C(=C\\c1cccc([N+](=O)[O-])c1)c1nc2ccc3c(c2[nH]1)C(=O)c1ccccc1C3=O"
  measured_on: "UO-31"
  label_value: "inactive"
- molecule: "COc1ccc(C[N+]23C(CC[C@H]2c2ccccc2)CC[C@H]3c2ccccc2)cc1 (stereo partly drawn)"
  measured_on: "UO-31"
  label_value: "inactive"
- molecule: "CCC1=NC(N/N=C/c2ccccc2O)=N/C1=C\\c1ccccc1O"
  measured_on: "UO-31"
  label_value: "inactive"
- molecule: "O=C(NC(CS)C(=O)O)c1c2ccccc2nc2ccccc12 (stereo not drawn)"
  measured_on: "UO-31"
  label_value: "inactive"
- molecule: "CC(C)Cc1ccc(C(C)/C=C2\\CCC(CN3CCCC3)C2=O)cc1 (stereo not drawn)"
  measured_on: "UO-31"
  label_value: "inactive"
- molecule: "CC(C)CCC[C@@H](C)[C@H]1CC[C@H]2[C@@H]3CC=C4C[C@@H](OC(=O)c5cccc6c(=O)c7ccccc7[nH]c56)CC[C@]4(C)[C@H]3CC[C@]12C"
  measured_on: "UO-31"
  label_value: "inactive"
- molecule: "CCCCC(=O)Nc1ccc2cc(C(=O)OC)c(Cl)nc2n1"
  measured_on: "UO-31"
  label_value: "inactive"

Q: What was the test verdict on `[N-]=[N+]=Nc1cc(=O)n(-c2ccccc2)c2ccccc12` ?
Ans: inactive

Q: Consider next the molecule `c1ccc(C(CCN2CC3CCC(CC3)C2)c2ccccc2)cc1` in the same way.
Ans: inactive

Q: # repeat for `N#Cc1c2nc3ccccc3nc2n2ccc3ccccc3c12`
Ans: inactive

Q: Also, CN(CC#N)C1CCCC[C@H]1O (stereo partly drawn) please.
Ans: inactive

Q: Do the same for `O=C1C(c2c(O)[nH]c3ccc(I)cc23)=Nc2ccccc21` please
Ans: inactive

Q: Now try `O=C(/C=C/c1ccc([N+](=O)[O-])o1)N1CCN(Cc2ccccc2)CC1` .
Ans: inactive
